Entry source: ChEMBL document CHEMBL1151461

molecular target: Human immunodeficiency virus type 1 integrase (Human immunodeficiency virus 1); test: Inhibition of HIV1 recombinant integrase by electrochemiluminescent-based high-throughput strand transfer assay
pIC50: −log10 of the molar value.
# if value of pIC50 reaches 5, tag Yes; if it stays below, tag No

Query: Check this compound for pIC50 at or above 5: COc1c2c(c(O)c3c1C(=O)c1c(cc(O)c(C)c1O)C3=O)-c1c(cc(C3NCc4ccccc4N3)c(C(=O)O)c1O)CC2 (centres undefined)
Reply: No

Query: Check this compound for pIC50 at or above 5: "COc1c2c(c(O)c3c1C(=O)c1c(cc(O)c(C)c1O)C3=O)-c1c(cc(/C=N/Nc3ccc([N+](=O)[O-])cc3)c(C(=O)O)c1O)CC2"
Reply: Yes

Query: Check this compound for pIC50 at or above 5: "COc1c2c(c(O)c3c1C(=O)c1c(cc(O)c(C)c1O)C3=O)-c1c(cc(/C=N/NC(C)(C)C)c(C(=O)O)c1O)CC2"
Reply: No

Query: Check this compound for pIC50 at or above 5: "COc1c2c(c(O)c3c1C(=O)c1c(cc(O)c(C)c1O)C3=O)-c1c(cc3cnn(C(=N)N)c(=O)c3c1O)CC2"
Reply: Yes

Query: Check this compound for pIC50 at or above 5: "CCOC(=O)Cn1ncc2cc3c(c(O)c2c1=O)-c1c(O)c2c(c(OC)c1CC3)C(=O)c1c(cc(O)c(C)c1O)C2=O"
Reply: Yes

Query: Check this compound for pIC50 at or above 5: "COc1c2c(c(O)c3c1C(=O)c1c(cc(O)c(C)c1O)C3=O)-c1c(cc(/C=N/NC(=O)c3ccccc3O)c(C(=O)O)c1O)CC2"
Reply: Yes

###

target: Human immunodeficiency virus type 1 integrase (Human immunodeficiency virus 1, UniProt Q7ZJM1); experiment: Inhibition of HIV1 recombinant integrase by electrochemiluminescent-based high-throughput strand transfer assay
Sequence (Q7ZJM1 whole entry): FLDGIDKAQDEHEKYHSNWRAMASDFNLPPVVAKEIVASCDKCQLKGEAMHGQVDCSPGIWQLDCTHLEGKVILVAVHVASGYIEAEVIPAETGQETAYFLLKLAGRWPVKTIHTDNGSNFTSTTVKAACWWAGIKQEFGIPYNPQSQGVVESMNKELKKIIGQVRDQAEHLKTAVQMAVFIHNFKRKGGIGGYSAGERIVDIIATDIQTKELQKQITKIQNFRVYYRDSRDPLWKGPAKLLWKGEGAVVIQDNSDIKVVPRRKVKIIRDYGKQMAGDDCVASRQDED
pIC50: −log10 of the molar value.
# if value of pIC50 reaches 5, tag 1.0; if it stays below, tag 0.0

Solved cases below.
# SMILES_ENTRY, CATEGORY
records = [
    ("CCCn1ncc2cc3c(c(OC(C)=O)c2c1=O)-c1c(c(OC)c2c(c1OC(C)=O)C(=O)c1cc(OC(C)=O)c(C)c(OC(C)=O)c1C2=O)CC3", 0.0),
    ("COc1c2c(c(O)c3c1C(=O)c1c(cc(O)c(C)c1O)C3=O)-c1c(cc3cn[nH]c(=O)c3c1O)CC2", 1.0),
    ("COc1c2c(c(O)c3c1C(=O)c1c(cc(O)c(C)c1O)C3=O)-c1c(cc3cnn(-c4ccc(C(=O)O)cc4)c(=O)c3c1O)CC2", 1.0),
    ("COc1c2c(c(O)c3c1C(=O)c1c(cc(O)c(C)c1O)C3=O)-c1c(cc(/C=N/C34CC5CC(CC(C5)C3)C4)c(C(=O)O)c1O)CC2", 0.0),
    ("COc1c2c(c(O)c3c1C(=O)c1c(cc(O)c(C)c1O)C3=O)-c1c(cc3cnn(-c4ccccc4)c(=O)c3c1O)CC2", 1.0),
    ("COc1c2c(c(O)c3c1C(=O)c1c(cc(O)c(C)c1O)C3=O)-c1c(cc(/C=N/NS(=O)(=O)c3ccc(C)cc3)c(C(=O)O)c1O)CC2", 0.0),
    ("CCCn1ncc2cc3c(c(O)c2c1=O)-c1c(O)c2c(c(OC)c1CC3)C(=O)c1c(cc(O)c(C)c1O)C2=O", 1.0),
    ("COc1c2c(c(O)c3c1C(=O)c1c(cc(O)c(C)c1O)C3=O)-c1c(cc3cnn(CCOC(C)=O)c(=O)c3c1O)CC2", 1.0),
]

Attention now turns to another entry.
Query: Check this compound for pIC50 at or above 5: "COc1c2c(c(OCc3ccccc3)c3c1C(=O)c1c(cc(OCc4ccccc4)c(C)c1OCc1ccccc1)C3=O)-c1c(cc3cnn(CC(=O)O)c(=O)c3c1OCc1ccccc1)CC2"
Reply: 0.0
